Assay: Identification of antibody-drug conjugate (ADC) payloads which are substrates of ATP-binding cassette drug efflux transporters: ABCG2-H460-MX20 cell line
Conditions: H460-MX20 (ABCG2) viability, CellTiter-Glo, 48 h; series mostly up to 28.7 µM
Results filed as inconclusive are left out. The source made the active and inactive calls. Calls follow the shape of the dose curve; as a rule, active = well fitted inhibition curve with a large enough effect; inconclusive = small, poorly fitted or top-dose-only effect; inactive = flat fitted curve, though single readings scatter.
Recorded metric: Potency

Some entries whose results are on file:
CC[C@H](C)[C@@H]1NC(=O)CNC(=O)[C@H]2Cc3c([nH]c4cc(O)ccc34)S(=O)C[C@H](NC(=O)CNC1=O)C(=O)N[C@@H](CC(N)=O)C(=O)N1C[C@H](O)C[C@H]1C(=O)N[C@@H]([C@@H](C)[C@@H](O)CO)C(=O)N2 (some centres undefined)	1060 nM (active)
COc1cc2cc(C(=O)N3C[C@@H](CCl)c4c3cc(O)c3ccccc43)[nH]c2c(OC)c1OC	2.1 nM (active)

Now let's try a different one.
Enquiry: Tell me its Potency given COc1cc2cc(c1Cl)N(C)C(=O)C[C@H](OC(=O)[C@H](C)N(C)C(=O)CCS)[C@]1(C)OC1[C@H](C)C1C[C@@](O)(NC(=O)O1)[C@H](OC)/C=C/C=C(\C)C2 (some centres undefined) as the entry.
Return: 15000 nM (active)
